- experimental system: UniProt:Q96PH1
- Sequence (Q96PH1 whole entry): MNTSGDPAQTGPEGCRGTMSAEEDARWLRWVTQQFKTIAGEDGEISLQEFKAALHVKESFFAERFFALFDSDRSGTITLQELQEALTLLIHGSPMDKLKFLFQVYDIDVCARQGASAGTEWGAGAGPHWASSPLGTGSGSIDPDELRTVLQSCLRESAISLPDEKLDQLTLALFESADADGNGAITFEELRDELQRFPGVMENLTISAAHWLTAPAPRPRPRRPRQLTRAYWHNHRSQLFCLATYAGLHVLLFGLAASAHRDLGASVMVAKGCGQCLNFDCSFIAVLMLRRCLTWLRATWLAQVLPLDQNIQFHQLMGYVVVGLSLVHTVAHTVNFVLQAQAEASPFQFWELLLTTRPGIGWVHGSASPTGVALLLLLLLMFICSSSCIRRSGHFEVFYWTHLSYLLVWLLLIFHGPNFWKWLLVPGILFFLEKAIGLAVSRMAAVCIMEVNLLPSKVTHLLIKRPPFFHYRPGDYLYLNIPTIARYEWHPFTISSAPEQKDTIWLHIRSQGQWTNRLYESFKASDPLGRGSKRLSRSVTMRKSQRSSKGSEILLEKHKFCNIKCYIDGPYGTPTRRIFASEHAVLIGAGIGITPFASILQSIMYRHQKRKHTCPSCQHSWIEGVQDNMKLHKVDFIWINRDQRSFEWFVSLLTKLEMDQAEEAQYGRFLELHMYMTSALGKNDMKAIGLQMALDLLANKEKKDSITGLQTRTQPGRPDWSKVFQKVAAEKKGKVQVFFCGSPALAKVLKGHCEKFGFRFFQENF
- method description: Inhibition of full length human NOX5 transfected in HEK cells assessed as inhibition of ionomycin-stimulated ROS generation by chemiluminescence assay
endpoint name: IC50

Solved cases below.
C=C(C)C[C@H]1[C@H]2c3c(Br)cccc3[C@H](CC2(C)C)N1CCCCC (racemic) = > 100 µM
C=C(C)C[C@H]1[C@H]2c3c(Br)cccc3[C@H](CC2(C)C)N1Cc1c[nH]c2ccccc12 (racemic) = > 100 µM
C=C(C)C[C@@H]1N[C@H]2CC(C)(C)[C@@H]1c1c(Br)cccc12 (racemic) = 20 µM

Here is the next item to consider.
Q: Consider the compound C=C(C)C[C@H]1[C@H]2c3c(Br)cccc3[C@H](CC2(C)C)N1S(C)(=O)=O (racemic) and give its measured IC50.
Ans: > 100 µM

----------
- experimental system: NADPH oxidase 2 (Homo sapiens, UniProt P04839)
- method description: Inhibition of full length human NOX2 transfected in COS 22 cells assessed as inhibition of Phorbol 12-myristate 13-acetate-stimulated ROS generation by measuring H2O2 production by fluorescence assay in presence of superoxide dismutase
- Type: cell-based
- setup conditions: read-out: IC50
endpoint name: pIC50
Give bare numbers, as −log10 of the molar value.

Here's what some known entries look like.
C=C(C)C[C@@H]1N[C@H]2CC(C)(C)[C@@H]1c1c(Br)cccc12 (racemic) = 4.40
C=C(C)C[C@@H]1N[C@H]2CC(C)(C)[C@@H]1c1c(-c3ccc(Cl)c(Cl)c3)cccc12 (racemic) = 4.19
C=C(C)C[C@H]1[C@H]2c3c(Br)cccc3[C@H](CC2(C)C)N1Cc1cccc(F)c1 (racemic) = 4.29

Q: Lab request: please report pIC50 under test system NADPH oxidase 2 (Homo sapiens, UniProt P04839) for CC(C)C[C@@H]1N[C@H]2CC(C)(C)[C@@H]1c1c(Br)cccc12 (racemic)
Ans: 4.11

----------
- experimental system: UniProt:P04839
- Sequence (P04839 whole entry): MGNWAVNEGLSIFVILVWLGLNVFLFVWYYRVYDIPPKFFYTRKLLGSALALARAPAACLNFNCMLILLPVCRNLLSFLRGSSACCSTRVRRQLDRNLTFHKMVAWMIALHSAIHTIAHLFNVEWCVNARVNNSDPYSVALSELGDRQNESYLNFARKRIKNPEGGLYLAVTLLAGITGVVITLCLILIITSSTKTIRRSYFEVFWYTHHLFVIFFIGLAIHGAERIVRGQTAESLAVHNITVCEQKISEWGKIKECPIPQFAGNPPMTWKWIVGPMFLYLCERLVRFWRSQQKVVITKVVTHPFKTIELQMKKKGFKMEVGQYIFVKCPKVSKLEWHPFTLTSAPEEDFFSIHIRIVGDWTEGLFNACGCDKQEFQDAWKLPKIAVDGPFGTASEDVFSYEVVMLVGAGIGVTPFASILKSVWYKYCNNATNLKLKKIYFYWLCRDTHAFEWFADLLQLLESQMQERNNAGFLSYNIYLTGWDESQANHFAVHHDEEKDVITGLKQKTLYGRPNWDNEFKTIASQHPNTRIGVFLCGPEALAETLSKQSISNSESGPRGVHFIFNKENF
- method description: Inhibition of full length human NOX2 transfected in COS 22 cells assessed as inhibition of Phorbol 12-myristate 13-acetate-stimulated ROS generation by measuring H2O2 production by fluorescence assay in presence of superoxide dismutase
- Type: cell-based
- setup conditions: read-out: IC50
endpoint name: pIC50
Answers are plain numbers, as −log10 of the molar value.

Reference set (3 entries):
C=C(C)C[C@H]1[C@H]2c3c(Br)cccc3[C@H](CC2(C)C)N1Cc1cccs1 (racemic) = 4.49
C=C(C)C[C@H]1[C@H]2c3ccccc3[C@H](CC2(C)C)N1Cc1cccc(F)c1 (racemic) = 4.52
C=C(C)C[C@H]1[C@H]2c3c(Br)cccc3[C@H](CC2(C)C)N1Cc1cc(C)on1 (racemic) = 4.92

Provide reported pIC50 for each item, in the same order as listed.
1. C=C(C)C[C@H]1[C@H]2c3c(Br)cccc3[C@H](CC2(C)C)N1Cc1ccc2c(c1)OCO2 (racemic)
2. C=C(C)C[C@H]1[C@H]2c3c(Br)cccc3[C@H](CC2(C)C)N1S(C)(=O)=O (racemic)

Ans:
1: 4.40; 2: 4.57

----------
- experimental system: NADPH oxidase 2 (Homo sapiens)
- Sequence (P04839 whole entry): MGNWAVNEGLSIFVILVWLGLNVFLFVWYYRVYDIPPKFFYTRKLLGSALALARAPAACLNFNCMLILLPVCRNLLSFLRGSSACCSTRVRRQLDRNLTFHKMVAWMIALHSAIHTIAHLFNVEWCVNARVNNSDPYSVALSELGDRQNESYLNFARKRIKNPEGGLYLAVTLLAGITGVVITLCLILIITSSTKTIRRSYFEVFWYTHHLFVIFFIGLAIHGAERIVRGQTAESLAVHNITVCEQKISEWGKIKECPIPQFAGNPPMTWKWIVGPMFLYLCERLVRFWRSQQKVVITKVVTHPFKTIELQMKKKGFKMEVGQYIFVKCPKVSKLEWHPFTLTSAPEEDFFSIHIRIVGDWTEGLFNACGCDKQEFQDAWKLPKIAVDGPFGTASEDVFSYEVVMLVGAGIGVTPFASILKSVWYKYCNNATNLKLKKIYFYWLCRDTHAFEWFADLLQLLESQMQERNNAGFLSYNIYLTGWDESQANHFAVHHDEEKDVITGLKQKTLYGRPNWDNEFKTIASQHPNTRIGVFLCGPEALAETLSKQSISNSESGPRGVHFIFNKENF
- method description: Inhibition of full length human NOX2 transfected in COS 22 cells assessed as inhibition of Phorbol 12-myristate 13-acetate-stimulated ROS generation by chemiluminescence assay
- Type: cell-based
- setup conditions: read-out: IC50
endpoint name: IC50 (µM)
One number for each entry, in µM.

Reference set, count: 2
C=C(C)C[C@@H]1N[C@H]2CC(C)(C)[C@@H]1c1c(Br)cccc12 (racemic) = 46
C=C(C)C[C@H]1[C@H]2c3ccccc3[C@H](CC2(C)C)N1Cc1cccc(F)c1 (racemic) = 68

Would you mind giving IC50 for every compound in the list below?
1. C=C(C)C[C@@H]1N[C@H]2CC(C)(C)[C@@H]1c1c(-c3ccc(Cl)c(Cl)c3)cccc12 (racemic)
2. C=C(C)C[C@H]1[C@H]2c3c(Br)cccc3[C@H](CC2(C)C)N1Cc1cc(C)on1 (racemic)
3. CC(C)C[C@@H]1N[C@H]2CC(C)(C)[C@@H]1c1c(Br)cccc12 (racemic)
4. C=C(C)C[C@H]1[C@H]2c3c(Br)cccc3[C@H](CC2(C)C)N1Cc1cccc(F)c1 (racemic)
5. C=C(C)C[C@H]1[C@H]2c3c(Br)cccc3[C@H](CC2(C)C)N1CCCCC (racemic)

Ans:
1: 9; 2: 48; 3: 31; 4: 68; 5: 20

Give one value of IC50 per listed compound.
1. C=C(C)C[C@H]1[C@H]2c3c(Br)cccc3[C@H](CC2(C)C)N1Cc1ccc2c(c1)OCO2 (racemic)
2. C=C(C)C[C@H]1[C@H]2c3c(Br)cccc3[C@H](CC2(C)C)N1Cc1cccs1 (racemic)

Ans:
88
38

----------
- experimental system: NADPH oxidase 5 (Homo sapiens)
- method description: Inhibition of full length human NOX5 transfected in HEK cells assessed as inhibition of ionomycin-stimulated ROS generation by chemiluminescence assay
I'd be grateful if you could share measured IC50 for these entries.
Answers are plain numbers, in µM.

C=C(C)C[C@H]1[C@H]2c3c(Br)cccc3[C@H](CC2(C)C)N1Cc1cccc(F)c1 (racemic) = 79

Proceeding to the next molecule to report its IC50.
Q: Item: CC(C)C[C@@H]1N[C@H]2CC(C)(C)[C@@H]1c1c(Br)cccc12 (racemic) Test system: NADPH oxidase 5 (Homo sapiens) Read-out: IC50 Value: ?
Ans: 18
